Where do these numbers come from? They come from patent US20240351996A1.

Target under test: CDK19/CycC (Homo sapiens, UniProt Q9BWU1)
Sequence (Q9BWU1 whole entry): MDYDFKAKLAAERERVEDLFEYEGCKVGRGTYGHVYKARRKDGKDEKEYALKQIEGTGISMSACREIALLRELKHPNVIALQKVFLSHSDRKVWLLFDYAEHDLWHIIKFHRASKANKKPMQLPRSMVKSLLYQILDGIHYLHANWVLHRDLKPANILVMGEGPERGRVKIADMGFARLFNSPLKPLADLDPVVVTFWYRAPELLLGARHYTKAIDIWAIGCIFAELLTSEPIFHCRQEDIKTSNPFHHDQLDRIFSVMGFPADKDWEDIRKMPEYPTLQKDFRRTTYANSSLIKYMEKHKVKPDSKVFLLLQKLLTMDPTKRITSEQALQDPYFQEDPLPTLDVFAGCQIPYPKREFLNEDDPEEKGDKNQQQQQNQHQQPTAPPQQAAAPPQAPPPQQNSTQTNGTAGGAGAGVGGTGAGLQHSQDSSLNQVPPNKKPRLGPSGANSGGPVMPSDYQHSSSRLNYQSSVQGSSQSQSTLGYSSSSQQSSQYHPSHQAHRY
Sequence (P24863 whole entry partner): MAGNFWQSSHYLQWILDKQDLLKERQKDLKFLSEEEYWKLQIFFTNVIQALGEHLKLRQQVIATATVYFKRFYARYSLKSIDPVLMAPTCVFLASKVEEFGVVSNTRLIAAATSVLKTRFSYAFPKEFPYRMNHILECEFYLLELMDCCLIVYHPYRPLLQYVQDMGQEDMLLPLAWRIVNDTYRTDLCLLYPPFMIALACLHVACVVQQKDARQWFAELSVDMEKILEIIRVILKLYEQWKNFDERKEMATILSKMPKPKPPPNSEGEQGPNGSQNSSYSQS
Procedure text: LanthaScreen europium kinase binding assay (FRET displacement), CDK19
Experimental parameters: CDK19/CDK8 selectivity based on IC50 values
Value kind: CDK19 Selectivity
Number, no unit, nothing else.

Some entries whose results are on file:
>>> endpoint_value("CC(C)Cc1ccc(Nc2ncc(-c3cc(C#N)ccn3)cn2)cc1")
9
>>> endpoint_value("Cc1cnccc1Nc1cnc(Nc2cccc(CC(C)C)c2)nc1")
3.5
>>> endpoint_value("CCc1cnc(C)cc1Nc1cnc(Nc2ccc(CC(C)C)cc2)nc1")
2.3
>>> endpoint_value("CC(C)Cc1ccc(Nc2ncc(C(=O)c3ccncc3F)cn2)cc1")
1.9
>>> endpoint_value("CC(C)Cc1ccc(Nc2ccc(C(=O)c3cccnc3)cn2)cc1")
2
>>> endpoint_value("CC(C)Cc1ccc(Nc2ncc(Nc3ccncc3C3CC3)cn2)cc1")
3

[ask] Fill in: CDK19 Selectivity of CC(C)Cc1ccc(Nc2ncc(Nc3ccnc(C4CC4)c3)cn2)cc1 is ___
[reply] 5

[ask] Likewise for CCCc1ccc(Nc2ncc(Nc3ccnc(C)c3)cn2)cc1 ?
[reply] 3.1
